System: Wnt5a (protein binding on small-molecule microarray)
Assay overview: small molecules binding Wnt5a protein – biophysical, small-molecule microarray, 635/667 nm fluorescence, primary screen (AID 1142);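 note: fluorescence read at 667 nm with signal to noise per printed feature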
Assay conditions: 635 nm fluorescence, higher = more signal
Reported endpoint: composite z-score
# print the numeric value only

The cases that follow already have their composite z-score on record.
Suppose we examine the compound CCOC(=O)C1=CC[C@@H](c2cccc(Br)c2)N(S(=O)(=O)c2ccc(C)cc2)[C@H]1c1ccc([N+](=O)[O-])cc1 ; what composite z-score value has been reported?
0.559

Which composite z-score is listed for COC(=O)C(CC#Cc1ccc2c(c1)[C@]1(C(=O)N2)[C@H](C(=O)N2CCc3cc(OC)c(OC)cc3C2)[C@H]2C(=O)O[C@H](c3ccccc3)[C@H](c3ccccc3)N2[C@@H]1c1ccc(OCCO)cc1)C(=O)OC ?
0.5

In the following, a different compound is considered.
Look up composite z-score: Cc1ccc(S[C@]2(C(=O)O)CC(=O)N(C3CCCCC3)[C@@H]2c2ccc(CO)cc2)cc1
0.219

###

Assay overview: probe aShh binding to arrayed compounds – biochemical, biotinylated probe, 635/667 nm fluorescence, primary screen (AID 1114);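 note: probe is biotin-labelled aShh protein from a stem cell growth factor screen; measures binding of labelled protein to compounds printed on the slide; score merges feature fluorescence at 667 nm with signal-to-noise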
Assay conditions: small-molecule microarray, higher = more signal
We begin with a simple list: items and their reported composite z-score.
Give the figure only, with no unit attached.

Examples with their reported composite z-score follow.
For the compound COC(=O)[C@@]1(Cc2ccc(OC)cc2)[C@H]2c3cc(C(=O)N4CCCC4)n(CCF)c3C[C@H]2CN1C(=O)c1ccccc1 , what composite z-score is on record?
2.55

Return reported composite z-score; argument: CCOC(=O)C[C@H]1[C@H](OC(=O)c2ccc(C(=O)c3ccccc3)cc2)[C@@H](NC(=O)C2CCCCC2)c2cc(OCCCO)ccc2N1C(=O)Cc1ccc(OC)cc1
-0.0769

Tell me the measured composite z-score of COC(=O)C(CC#Cc1ccc2c(c1)[C@]1(C(=O)N2)[C@H](C(=O)N2CCc3cc(OC)c(OC)cc3C2)[C@H]2C(=O)O[C@H](c3ccccc3)[C@H](c3ccccc3)N2[C@@H]1c1ccc(OCCO)cc1)C(=O)OC , please.
-0.159

Name the recorded composite z-score for CC(C)C(CO)N1C(=O)[C@@H]2[C@H]3C(=O)OCC=C[C@H]3OC23C=CCN(CCN2CCOCC2)C(=O)[C@@H]13 (some centres not stated) .
-0.0709

Could you share which composite z-score value was measured for COc1ccc([Si](C)(C)[C@@H]2[C@@H](CCO)O[C@]3(C(=O)N(Cc4ccccc4)c4ccc(N5C(=O)COc6ccccc65)cc43)[C@H]2C)cc1 ?
-0.0626

Looking for the measured composite z-score of O=C1CSC(c2cccc([N+](=O)[O-])c2)N1c1ccccc1 (configuration not stated) , can you help?
-0.221

The record that follows has no composite z-score shown yet.
Look up composite z-score for this compound: C=CC[C@]1(C(=O)N2CCOCC2)N=C(c2ccc(OCCCO)cc2)O[C@H]1c1ccccc1CN=[N+]=[N-]
0.398

###

Assay overview: probe aWnt5a binding to arrayed compounds – biochemical, biotinylated probe, 635/667 nm fluorescence, primary screen (AID 1113);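 note: score merges 667 nm fluorescence intensity with signal-to-noise per printed feature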
Assay conditions: small-molecule microarray, higher = more signal
Would you please tag the item class 1 when its composite z-score is 0.07 or above, and class 0 when it is below?

Given the entry O=C1N(CCS(=O)(=O)c2ccccc2)c2ccccc2[C@H]2OC(c3ccc(OCCCO)cc3)=N[C@@]12CCS(=O)(=O)c1ccccc1 , answer whether its composite z-score meets or surpasses 0.07.
class 1

Dear colleague, could you confirm whether Cc1cc(C)c(C(O)C2C=CC3C(=O)N(c4ccccc4)C(=O)C3N2Nc2ccccc2)c(C)c1 (configuration not stated) has composite z-score at or above 0.07?
class 1

Would you say NC(=O)NCC#Cc1ccc2c(c1)[C@]1(C(=O)N2)[C@H](c2ccc(O)cc2)N2[C@H](c3ccccc3)[C@H](c3ccccc3)OC(=O)[C@H]2[C@@H]1C(N)=O shows composite z-score at minimum 0.07?
class 0

Confirm if composite z-score reported for the compound C=C(/C(=C/C[C@@H](OC(C)=O)c1ccccc1OCCO)c1cnc2ccccc2c1)C(C)C is 0.07 or above.
class 1

Would you say C=C(CCCC)/C(=C/C[C@H](OC(=O)c1ccncc1)c1ccc(CO)o1)c1cc(C(=O)OC)ccc1OC shows composite z-score at minimum 0.07?
class 0

Check if composite z-score >= 0.07 (inclusive). Item: COCCOC(=O)N1C(=O)[C@@]2(c3cc(C#CCNC(N)=O)ccc31)[C@H](c1ccc(OCCO)cc1)N1[C@H](c3ccccc3)[C@H](c3ccccc3)OC(=O)[C@H]1[C@@H]2C(=O)N1CCN(c2ncccn2)CC1
class 0

# check: composite z-score of CC(=O)NCCCC[C@@H]1NC(=O)[C@@H]2C[C@H](C(=O)NCCCC[N+](C)(C)C)[C@H](c3cccc(OCCO)c3)N2C1=O is greater than or equal to 0.07
class 0

###

Assayed system: Dihydroorotate dehydrogenase (quinone), mitochondrial (Plasmodium falciparum (isolate 3D7)) (UniProt Q08210)
Sequence (Q08210 whole entry, looked up): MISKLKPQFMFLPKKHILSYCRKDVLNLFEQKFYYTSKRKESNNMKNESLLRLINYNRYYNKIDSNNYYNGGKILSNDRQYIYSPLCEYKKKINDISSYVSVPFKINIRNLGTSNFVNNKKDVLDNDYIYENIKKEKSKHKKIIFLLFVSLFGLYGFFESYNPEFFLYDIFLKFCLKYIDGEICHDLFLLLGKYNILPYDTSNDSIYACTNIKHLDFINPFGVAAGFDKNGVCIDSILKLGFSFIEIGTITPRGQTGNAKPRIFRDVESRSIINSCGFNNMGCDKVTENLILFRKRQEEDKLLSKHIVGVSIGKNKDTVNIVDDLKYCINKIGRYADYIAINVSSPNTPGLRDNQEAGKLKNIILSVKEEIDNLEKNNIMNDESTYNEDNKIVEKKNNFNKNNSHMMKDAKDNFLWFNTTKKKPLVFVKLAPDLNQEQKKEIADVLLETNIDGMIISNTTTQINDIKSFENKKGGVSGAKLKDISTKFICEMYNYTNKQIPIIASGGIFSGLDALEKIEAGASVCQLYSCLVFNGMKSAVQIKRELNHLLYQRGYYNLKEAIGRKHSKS
Assay overview: inhibition of P. falciparum DHODH – biochemical, C-terminal His tag, absorbance 600 nm, primary screen (AID 1175);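 note: recombinant parasite enzyme with a five histidine tag at its C terminus; test concentration not given here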
Assay conditions: PfDHODH enzyme, DCIP absorbance 600 nm; higher = more signal, called active from +8 up or from −8 down
Would you please tag the item Satisfied when its composite z-score is -0.2 or above, and Not satisfied when it is below?

Worked set:
// inclusive: composite z-score at least -0.2? input: COc1ccc([Si](C)(C)[C@H]2[C@H](CCO)O[C@@]3(C(=O)N(Cc4cccc(N5CCOC5=O)c4)c4ccccc43)[C@@H]2C)cc1
Not satisfied

Can O=C(N1CCOCC1)[C@@]1(CCS(=O)(=O)c2ccccc2)COC(c2ccc(OCCCO)cc2)=N1 be said to have composite z-score at or above -0.2?
Satisfied

Quick check, composite z-score >= -0.2? COC(=O)[C@@]1(Cc2ccc(F)cc2)[C@H]2c3cc(C(=O)N(C)C)n(Cc4ccc(C)c(F)c4F)c3C[C@H]2CN1C(=O)c1ccccc1
Satisfied

Please tell me: is the compound O=C1OCCC=C[C@H]2OC34C=CCN(Cn5nnc6ccccc65)C(=O)[C@H]3N(CCCCCO)C(=O)[C@@H]4C12 (some centres not stated) at or over -0.2 in terms of composite z-score?
Not satisfied

Does composite z-score meet or surpass -0.2 for COC(=O)[C@@]1(Cc2ccc(F)cc2)[C@H]2c3cc(C(=O)N(C)C)n(CCSCCO)c3C[C@H]2CN1C(=O)c1ccccc1 ?
Not satisfied

***
Reported composite z-score at or above -0.2? NCCCCCCNC(=O)[C@H]1C[C@H]2C(=O)N3CCC[C@H]3C(=O)N2[C@H]1c1ccc(O)cc1
Not satisfied

Is composite z-score at least -0.2? Consider COCCOC(=O)N1C(=O)[C@@]2(c3cc(C#CC4(O)CCCCCC4)ccc31)[C@H](C(=O)NC[C@H](O)c1ccccc1)[C@H]1C(=O)O[C@H](c3ccccc3)[C@H](c3ccccc3)N1[C@@H]2c1ccc(OCCO)cc1
Not satisfied

###

Assayed system: Alpha-bungarotoxin (Bungarus multicinctus) (UniProt P60615)
Sequence (P60615 whole entry, looked up): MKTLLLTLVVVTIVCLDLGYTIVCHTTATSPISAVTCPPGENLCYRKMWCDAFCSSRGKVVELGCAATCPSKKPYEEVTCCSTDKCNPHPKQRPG
Assay overview: compounds binding labelled alpha-BTX control protein – biochemical, small-molecule microarray, Alexa647 label, 635/667 nm fluorescence, artefact control for SMM control protein annotation, profiling panel (AID 1117)
Assay conditions: alpha-BTX-A647 binding fluorescence, higher = more signal
Reported endpoint: composite z-score
Answer field: number only, no words.

Worked set:
Which composite z-score is reported for this compound? COc1ccc([Si](C)(C)[C@@H]2[C@@H](CCO)O[C@]3(C(=O)N(Cc4ccc(N5C(=O)c6ccccc6Oc6ccccc65)cc4)c4ccccc43)[C@H]2C)cc1
0.0794

Quick check: composite z-score of COC(=O)C(CC#Cc1ccc2c(c1)[C@]1(C(=O)N2)[C@H](c2ccc(O)cc2)N2[C@H](c3ccccc3)[C@H](c3ccccc3)OC(=O)[C@H]2[C@@H]1C(=O)O)C(=O)OC ?
0.33

Which composite z-score value is on record for NC(=O)NCC#Cc1ccc2c(c1)[C@]1(C(=O)N2)[C@H](c2ccc(OCCO)cc2)N2[C@H](c3ccccc3)[C@H](c3ccccc3)OC(=O)[C@H]2[C@@H]1C(=O)N1CCCCCCC1 ?
1.77

// returns reported composite z-score for input COCCOC(=O)N1C(=O)[C@@]2(c3cc(C#CCNC(N)=O)ccc31)[C@H](C(=O)N1CCCCCCC1)[C@H]1C(=O)O[C@H](c3ccccc3)[C@H](c3ccccc3)N1[C@@H]2c1ccc(OCCO)cc1
1.09

Item C=C[C@H](C)[C@H](OC(=O)Nc1ccc(SC)cc1)c1ccc(O)c2ccccc12 has what recorded composite z-score?
-0.385

***
Bench note: what composite z-score did COC(=O)[C@@]1(Cc2ccc(F)cc2)[C@@H]2[C@@H](CC(=O)[C@H]2CC(=O)C(=O)N2CCCC2)CN1C(=O)c1ccccc1 show?
1.03

If you can, please state the reported composite z-score value of C=C(CCCC)/C(=C/C[C@@H](OC(=O)c1ccncc1)c1ccccc1OCCO)c1cc(C(=O)OC)ccc1OC .
1.93

Query (compound): [N-]=[N+]=NCc1ccccc1C[C@@]1(C(=O)NCCN2CCOCC2)N=C(c2ccc(OCCCO)cc2)O[C@@H]1c1ccccc1CN=[N+]=[N-] ; field requested: composite z-score
1.04

Which composite z-score is listed for COC(=O)[C@@]1(Cc2ccccc2)[C@H]2c3cc(C(=O)N(C)C)n(Cc4ccccn4)c3C[C@H]2CN1C(=O)c1ccccc1 ?
0.94

Endpoint output: composite z-score of O=C1C2C=CC(C(O)c3cccc4ccccc34)N(Nc3ccccc3)C2C(=O)N1c1ccccc1 (centres undefined) . Value?
2.06

The reported numbers originate from PubChem BioAssay.
